Origin of values: ChEMBL document CHEMBL4814030

Test: Permeability of compound by PAMPA
Format: ADME
Conditions: read-out: permeability
Entries and their Papp values follow.
Please state the value followed by its unit.

Answered examples (2):
>  <compound>
NS(=O)(=O)c1ccc(Cc2c(-c3cccc(OCc4ccccc4)c3)nn(-c3nc(C(=O)O)cs3)c2CC2CC2)cc1F

>  <result>
1.1 ×10⁻⁶ cm/s

$$$$
>  <compound>
NS(=O)(=O)c1ccc(Cc2c(-c3cccc(N4CCOCC4)c3)nn(-c3nc(C(=O)O)cs3)c2CC2CC2)cc1F

>  <result>
1.6 ×10⁻⁶ cm/s

$$$$

Request: Would you kindly share the measured Papp for NS(=O)(=O)c1ccc(Cc2c(-c3ccc(F)c(OC4CC4)c3)nn(-c3nc(C(=O)O)cs3)c2CC2CC2)cc1F ?
Result: 5.8 ×10⁻⁶ cm/s

----------
Experiment: Kinetic solubility of compound
Type: physicochemical
Conditions: read-out: Kinetic_solubility
measured_endpoint: solubility kinetic (µg/mL)
The figure you give is taken to be in µg/mL; do not add the unit.

>  <compound>
NS(=O)(=O)c1ccc(Cc2c(-c3ccc(F)c(OCc4ccc(C(F)(F)F)o4)c3)nn(-c3nc(C(=O)O)cs3)c2CC2CC2)cc1F

>  <readout_number>
53.2

$$$$
>  <compound>
NS(=O)(=O)c1ccc(Cc2c(-c3ccc(F)c(C(=O)NCc4ccccc4)c3)nn(-c3nc(C(=O)O)cs3)c2CC2CC2)cc1F

>  <readout_number>
81

$$$$
>  <compound>
NS(=O)(=O)c1ccc(Cc2c(-c3cccc(OCc4ccccc4)c3)nn(-c3nc(C(=O)O)cs3)c2CC2CC2)cc1F

>  <readout_number>
72.4

$$$$
>  <compound>
Cc1ccc(Oc2cc(-c3nn(-c4nc(C(=O)O)cs4)c(CC4CC4)c3Cc3ccc(S(N)(=O)=O)c(F)c3)ccc2F)cc1

>  <readout_number>
24

$$$$
>  <compound>
NS(=O)(=O)c1ccc(Cc2c(-c3ccc(F)c(OCc4cccc(F)c4)c3)nn(-c3nc(C(=O)O)cs3)c2CC2CC2)cc1F

>  <readout_number>
10.7

$$$$
>  <compound>
NS(=O)(=O)c1ccc(Cc2c(-c3ccc(F)c(OCC4CC4(F)F)c3)nn(-c3nc(C(=O)O)cs3)c2CC2CC2)cc1F (stereo unspecified)

>  <readout_number>
76.1

$$$$

Query compound follows.
Request: Would you kindly share the measured solubility kinetic for NS(=O)(=O)c1ccc(Cc2c(-c3cccc(Nc4ccccc4)c3)nn(-c3nc(C(=O)O)cs3)c2CC2CC2)cc1 ?
Result: 49.3

----------
Biological target: L-lactate dehydrogenase A chain (Homo sapiens, UniProt P00338)
Assay: Inhibition of LDHA in human MIA PaCa2 cells assessed as reduction in lactate production incubated for 2 hrs by fluorescence based assay
Type: cell-based, MIA PaCa-2
Entries and their pIC50 values follow.
# pIC50 = -log10(concentration in molar units)

Request: Would you kindly share the measured pIC50 for CC(C)N1CC2(CN(c3cc(-c4nn(-c5nc(C(=O)O)cs5)c(CC5CC5)c4Cc4ccc(S(N)(=O)=O)c(F)c4)ccc3F)C2)C1 ?
Result: 4.62

----------
Molecular target: L-lactate dehydrogenase A chain (Homo sapiens, UniProt P00338)
Test: Inhibition of LDHA in human MIA PaCa2 cells assessed as reduction in lactate production incubated for 2 hrs by fluorescence based assay
Type: cell-based, MIA PaCa-2
Returns: string. Value is Y if measured IC50 is below 6 µM, and N if it is greater than or equal to it.

Take a look at these entries with their results.
>  <compound>
COc1cccc(-c2nn(-c3nc(C(=O)O)cs3)cc2Cc2ccc(S(N)(=O)=O)cc2)c1

>  <class>
N

$$$$
>  <compound>
NS(=O)(=O)c1ccc(Cc2c(-c3cccc(N4CCCC(F)(F)C4)c3)nn(-c3nc(C(=O)O)cs3)c2CC2CC2)cc1F

>  <class>
N

$$$$
>  <compound>
Cc1ccc(Oc2cc(-c3nn(-c4nc(C(=O)O)cs4)c(CC4CC4)c3Cc3ccc(S(N)(=O)=O)c(F)c3)ccc2F)cc1

>  <class>
Y

$$$$
>  <compound>
NS(=O)(=O)c1ccc(Cc2cn(-c3nc(C(=O)O)cs3)nc2-c2cccc(OCc3cccnc3)c2)cc1

>  <class>
N

$$$$

Request: Please check: IC50 for NS(=O)(=O)c1ccc(Cc2c(-c3cccc(N4CCCC(C(F)(F)F)C4)c3)nn(-c3nc(C(=O)O)cs3)c2CC2CC2)cc1F (configuration not stated) , strictly under 6 µM or not?
Result: N

Request: Please check: IC50 for NS(=O)(=O)c1ccc(Cc2c(-c3ccc(F)c(OCC4CC4(F)F)c3)nn(-c3nc(C(=O)O)cs3)c2CC2CC2)cc1F (configuration not stated) , strictly under 6 µM or not?
Result: Y
